// IC50 lookup, one value per entry
Molecular target: Jurkat cells expressing CXCR4 (Homo sapiens, UniProt P61073)
Construct: endogenous in cells
Sequence (P61073 whole entry): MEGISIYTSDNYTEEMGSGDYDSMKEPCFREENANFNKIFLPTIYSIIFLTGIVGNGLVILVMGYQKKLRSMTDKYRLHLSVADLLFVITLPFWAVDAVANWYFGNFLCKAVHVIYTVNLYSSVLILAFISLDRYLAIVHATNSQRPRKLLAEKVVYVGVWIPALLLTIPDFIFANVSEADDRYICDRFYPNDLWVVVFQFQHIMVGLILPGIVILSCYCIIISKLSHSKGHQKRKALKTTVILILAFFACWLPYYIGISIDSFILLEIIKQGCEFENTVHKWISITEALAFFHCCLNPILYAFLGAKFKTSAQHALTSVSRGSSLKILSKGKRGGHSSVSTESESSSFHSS
Experiment: Chemokine (CXCL12-AF647) binding inhibition assay
Details: CXCL12-AF647 25 ng/mL, read-out: IC50 CXCL-12 binding Jurkat

Q: Consider the molecule Cc1ccnc([C@@H]2CCC[C@H](c3nc4cccc(N5CCN(C)CC5)c4[nH]3)N2C)c1 [I-71] and give its measured IC50.
A: 100 to 1000 nM

Q: Consider the molecule CN1CCN(c2cccc3nc([C@H]4CCC[C@@H](c5nccn6cccc56)N4C)[nH]c23)CC1 (stereo in doubt) [I-90] and give its measured IC50.
A: 0.01 to 100 nM

Q: Consider the molecule CN1CCN(c2cccc3nc([C@H]4CCC[C@@H](c5ncn6ccccc56)N4C)[nH]c23)CC1 [I-93] and give its measured IC50.
A: 100 to 1000 nM

Q: Consider the molecule CN1CCN(c2cccc3nc([C@H]4CCC[C@@H](c5ncccc5Cl)N4)n(C)c23)CC1 [I-124] and give its measured IC50.
A: 0.01 to 100 nM

Q: Consider the molecule COCCCn1c([C@H]2CCC[C@@H](c3ncccc3C)N2)nc2ccccc21 [I-158] and give its measured IC50.
A: ≥ 1000 nM

Q: Consider the molecule Cc1cccnc1[C@@H]1CCC[C@H](c2nc3ccccc3n2CC2CCNCC2)N1C [I-14] and give its measured IC50.
A: 0.01 to 100 nM

Q: Consider the molecule Cc1cccnc1[C@@H]1CCC[C@H](c2nc3cccc(N4CCN5CCCC5C4)c3[nH]2)N1 (stereo partly drawn) [I-126] and give its measured IC50.
A: 0.01 to 100 nM

Q: Consider the molecule Cc1cccnc1[C@@H]1CCC[C@H](c2nc3ccccc3n2CCCN2CCOCC2)N1C [I-18] and give its measured IC50.
A: 0.01 to 100 nM

Q: Consider the molecule Cc1cccnc1[C@@H]1CCC[C@H](c2nc3cccc(N4CCC(N(C)C)CC4)c3[nH]2)N1C [I-67] and give its measured IC50.
A: 0.01 to 100 nM

Q: Consider the molecule [2H]C([2H])([2H])N1[C@@H](c2nc3cccc(N4CCN(C)CC4)c3[nH]2)CCC[C@H]1c1ncccc1C [I-112] and give its measured IC50.
A: 0.01 to 100 nM

Q: Consider the molecule CN1CCN(c2cccc3nc([C@H]4CCC[C@@H](c5ncccc5C(F)(F)F)N4C)[nH]c23)CC1 (relative stereo) [I-58] and give its measured IC50.
A: 0.01 to 100 nM

Q: Consider the molecule Cc1cccnc1[C@@H]1CCC[C@H](c2nc3cccc(N4CC5CCC(C4)N5C)c3[nH]2)N1C [I-56] and give its measured IC50.
A: 0.01 to 100 nM

====

// IC50 lookup, one value per entry
Target: CXCR-4 transfected U87 cell line (U87.CXCR4) (Homo sapiens, UniProt P61073)
Sequence (P61073 whole entry): as above
Assay: Intracellular CXCL-12-induced calcium mobilization assay (FLIPR)
Settings: U87.CXCR4 cells; CXCL-12 25-50 ng/mL; compound added 15 min before; read-out: IC50 CXCL-12 Ca^2+ flux U87.CXCR4+

Q: Consider the compound Cc1cccnc1[C@@H]1CCC[C@H](c2nccn2CC2CCN(C)CC2)N1 and give its measured IC50.
A: 100 to 1000 nM

Q: Consider the compound Cc1cccnc1[C@@H]1CCC[C@H](c2nc3ccccc3n2CC2CCN(C)CC2)N1CC(F)(F)F and give its measured IC50.
A: ≥ 1000 nM

Q: Consider the compound Cc1cccc(F)c1[C@@H]1CCC[C@H](c2nc3cccc(N4CCN(C)CC4)c3[nH]2)N1C and give its measured IC50.
A: ≥ 1000 nM

====

// pIC50 lookup, one value per entry
Target: CXCR-4 transfected U87 cell line (U87.CXCR4) (Homo sapiens, UniProt P61073)
Test: Intracellular CXCL-12-induced calcium mobilization assay (FLIPR)
Settings: U87.CXCR4 cells; CXCL-12 25-50 ng/mL; compound added 15 min before; read-out: IC50 CXCL-12 Ca^2+ flux U87.CXCR4+
pIC50: −log10 of the molar value.

Q: Consider the compound Cc1cccnc1[C@H]1CCC[C@@H](c2nc3cccc(N4CCN(C)CC4)c3[nH]2)N1C (single isomer, unassigned) [I-3b] and give its measured pIC50.
A: 7.00 to 11.00

Q: Consider the compound CN1C2CCC1CN(c1cccc3nc([C@H]4CCC[C@@H](c5ncccc5Cl)N4)[nH]c13)C2 [I-119] and give its measured pIC50.
A: 6.00 to 7.00

Q: Consider the compound CO[C@H]1C[C@H](c2nc3cccc(N4CCN(C)CC4)c3[nH]2)N(C)[C@H](c2ncccc2C)C1 [I-103] and give its measured pIC50.
A: 6.00 to 7.00

Q: Consider the compound Cc1cccnc1[C@@H]1CCC[C@H](c2nc3cccc(Oc4cccnc4)c3[nH]2)N1C [I-77] and give its measured pIC50.
A: ≤ 6.00

====

Experiment: Mouse brain uptake assay (MBUA), 3 mg/kg IV, 0-24 h, 4 time points
Type: in vivo, male CD1 mice
Conditions: male, CD1; plasma, mouse, 3 mg/kg IV, 0-24 h; read-out: AUClast (P)
Procedure: Example 38: Pharmacokinetics and Brain Penetration Experiment to Determine Brain and Plasma Concentrations of Compounds after IV Administration to Male CD1 Mice The study design (9 animals) consisted of administrating the drug (IV: 3 mg/kg (5 mL/kg) via tail vein injection) and collecting samples at terminal bleeding for plasma and brain at 0.083, 0.5 and 1 h. The IV dosing solution was prepared in 50 mM citrate buffer (pH 4.0) at 0.6 mg/mL. […]
VALUE_TYPE: AUC(0-t) (ng·h/mL)

Cc1cccnc1[C@@H]1CCC[C@H](c2nc3cccc(N4C5CCC4CN(C)C5)c3[nH]2)N1 4820
Cc1cccnc1[C@@H]1CCC[C@H](c2nc3cccc(N4CCN(C5CC5)CC4)c3[nH]2)N1C 1050
Cc1cc(F)cnc1[C@@H]1CCC[C@H](c2nc3cccc(N4CCN(C)CC4)c3[nH]2)N1C 272

1. Cc1c(Cl)ccnc1[C@@H]1CCC[C@H](c2nc3cccc(N4CCN(C)CC4)c3[nH]2)N1C
2. Cc1cccnc1[C@@H]1CCC[C@H](c2nc3cccc(N4CCN(C(C)C)CC4)c3[nH]2)N1
Q: Please compare: 1 and 2 . Report which one has the smaller AUC(0-t) value. Field: selected label. Fill in the label of the entry you choose.
A: 1
(1: 269 ng·h/mL, 2: 1580 ng·h/mL)

====

// IC50 lookup, one value per entry
Target: Jurkat cells expressing CXCR4 (Homo sapiens)
Construct: endogenous in cells
Experiment: Chemokine (CXCL12-AF647) binding inhibition assay
Conditions: CXCL12-AF647 25 ng/mL, read-out: IC50 CXCL-12 binding Jurkat

Cc1cccnc1[C@@H]1CCC[C@H](c2nccn2C2CCNCC2)N1C 0.01 to 100 nM

Q: Consider the compound CNCCCn1c([C@H]2CCC[C@@H](c3ncccc3C)N2C)nc2ccccc21 and give its measured IC50.
A: 0.01 to 100 nM

Q: Consider the compound Cc1cccnc1[C@@H]1CCC[C@H](c2nc3cccc(N4CCN(C)CC4)c3[nH]2)N1 and give its measured IC50.
A: 0.01 to 100 nM

====

Assay: in vitro
Conditions: human, Caco-2, pH 7.4
VALUE_TYPE: efflux ratio at 90 min, 10 μM

Some compounds with recorded efflux ratio at 90 min, 10 μM:
COMPOUND	efflux ratio at 90 min, 10 μM
CNCCCCn1c([C@H]2CCC[C@@H](c3ncccc3C)N2C)nc2ccccc21	10 to 30
Cc1cccnc1[C@@H]1CCC[C@H](c2nc3ccccc3n2CC2CCCNC2)N1C (stereo partly drawn)	10 to 30

Proceeding to the next compound to report its efflux ratio at 90 min, 10 μM.
Q: Consider the compound Cc1cccnc1[C@@H]1CCC[C@H](c2nc3ccccc3n2C2CCN(C)CC2)N1 and give its measured efflux ratio at 90 min, 10 μM.
A: 0.1 to 10

====

Biological target: CXCR-4 transfected U87 cell line (U87.CXCR4) (Homo sapiens, UniProt P61073)
Construct: expressed in transfected cells; host or cells: U87 (U87.CXCR4)
Assay: Intracellular CXCL-12-induced calcium mobilization assay (FLIPR)
Format: cell-based
Conditions: U87.CXCR4 cells; CXCL-12 25-50 ng/mL; compound added 15 min before; read-out: IC50 CXCL-12 Ca^2+ flux U87.CXCR4+
// IC50 lookup, one value per entry

COMPOUND	TARGET_SYSTEM	DATA_VALUE
CN1CCN(c2cccc3nc([C@H]4CCC[C@@H](c5ncccc5Cl)N4)[nH]c23)CC1 (racemic)	CXCR-4 transfected U87 cell line (U87.CXCR4) (Homo sapiens, UniProt P61073)	0.01 to 100 nM
Cc1cccnc1[C@@H]1CCC[C@H](c2nc3cccc(N4CCNC5(CC5)C4)c3[nH]2)N1C	CXCR-4 transfected U87 cell line (U87.CXCR4) (Homo sapiens, UniProt P61073)	100 to 1000 nM
[2H]C([2H])([2H])N1CCN(c2cccc3nc([C@H]4CCC[C@@H](c5ncccc5C)N4C)[nH]c23)CC1	CXCR-4 transfected U87 cell line (U87.CXCR4) (Homo sapiens, UniProt P61073)	0.01 to 100 nM
CCN1CCC(Cn2c([C@H]3CCC[C@@H](c4ncccc4C)N3C)nc3ccccc32)CC1	CXCR-4 transfected U87 cell line (U87.CXCR4) (Homo sapiens, UniProt P61073)	0.01 to 100 nM
CN1CCN(c2cccc3nc([C@H]4CCC[C@@H](c5ncccc5C#N)N4C)[nH]c23)CC1	CXCR-4 transfected U87 cell line (U87.CXCR4) (Homo sapiens, UniProt P61073)	≥ 1000 nM
CN1CCN(c2cccc3nc([C@H]4CCC[C@@H](c5ncn6ccccc56)N4C)[nH]c23)CC1	CXCR-4 transfected U87 cell line (U87.CXCR4) (Homo sapiens, UniProt P61073)	≥ 1000 nM

Q: Recall the recorded IC50 for CN1CCC(n2c([C@H]3CCC[C@@H](c4ccccn4)N3)nc3ccccc32)CC1 with CXCR-4 transfected U87 cell line (U87.CXCR4) (Homo sapiens, UniProt P61073) and state it.
A: 100 to 1000 nM

Q: Recall the recorded IC50 for Cc1cc(F)cnc1[C@@H]1CCC[C@H](c2nc3cccc(N4CCN(C)CC4)c3[nH]2)N1 with CXCR-4 transfected U87 cell line (U87.CXCR4) (Homo sapiens, UniProt P61073) and state it.
A: 0.01 to 100 nM

Q: Recall the recorded IC50 for Cc1cccnc1[C@@H]1CCC[C@H](c2nc3ccccc3n2CCC#N)N1C with CXCR-4 transfected U87 cell line (U87.CXCR4) (Homo sapiens, UniProt P61073) and state it.
A: ≥ 1000 nM

Q: Recall the recorded IC50 for CCN1[C@@H](c2nc3ccccc3n2CC2CCN(C)CC2)CCC[C@H]1c1ncccc1C with CXCR-4 transfected U87 cell line (U87.CXCR4) (Homo sapiens, UniProt P61073) and state it.
A: 0.01 to 100 nM

Q: Recall the recorded IC50 for Cc1cccnc1[C@@H]1CCC[C@H](c2nc3cccc(N4CCC(N(C)C)CC4)c3[nH]2)N1C with CXCR-4 transfected U87 cell line (U87.CXCR4) (Homo sapiens, UniProt P61073) and state it.
A: 0.01 to 100 nM

Q: Recall the recorded IC50 for Cc1cccnc1[C@@H]1CCC[C@H](c2nc3cccc(Oc4ccncc4)c3[nH]2)N1C with CXCR-4 transfected U87 cell line (U87.CXCR4) (Homo sapiens, UniProt P61073) and state it.
A: ≥ 1000 nM

Q: Recall the recorded IC50 for COc1ccnc([C@@H]2CCC[C@H](c3nc4cccc(N5CCN(C)CC5)c4[nH]3)N2C)c1C with CXCR-4 transfected U87 cell line (U87.CXCR4) (Homo sapiens, UniProt P61073) and state it.
A: 0.01 to 100 nM

Q: Recall the recorded IC50 for CN1[C@@H](c2nc3cccc(N4CCN5CCCC5C4)c3[nH]2)CCC[C@H]1c1ncccc1Cl (stereo partly drawn) [I-96] with CXCR-4 transfected U87 cell line (U87.CXCR4) (Homo sapiens, UniProt P61073) and state it.
A: 100 to 1000 nM

Q: Recall the recorded IC50 for CN1CCN(c2cccc3nc([C@H]4CCC[C@@H](c5ncccc5OC(F)(F)F)N4C)[nH]c23)CC1 with CXCR-4 transfected U87 cell line (U87.CXCR4) (Homo sapiens, UniProt P61073) and state it.
A: 0.01 to 100 nM

Q: Recall the recorded IC50 for Cc1cccnc1[C@@H]1CCC[C@H](c2nc3cccc(N4CCN(C)C(C)C4)c3[nH]2)N1C (stereo partly drawn) with CXCR-4 transfected U87 cell line (U87.CXCR4) (Homo sapiens, UniProt P61073) and state it.
A: 0.01 to 100 nM

Q: Recall the recorded IC50 for Cc1cccnc1[C@@H]1CCC[C@H](c2nc3ccccc3[nH]2)N1Cc1ccccc1-n1cccn1 with CXCR-4 transfected U87 cell line (U87.CXCR4) (Homo sapiens, UniProt P61073) and state it.
A: 0.01 to 100 nM

Q: Recall the recorded IC50 for Cc1cccnc1[C@@H]1CCC[C@H](c2nc3cccc(N4CCN(C)C(C)(C)C4)c3[nH]2)N1C with CXCR-4 transfected U87 cell line (U87.CXCR4) (Homo sapiens, UniProt P61073) and state it.
A: 0.01 to 100 nM

Q: Recall the recorded IC50 for Cc1cccnc1[C@@H]1CCC[C@H](c2nc3ccccc3n2CCC#N)N1 with CXCR-4 transfected U87 cell line (U87.CXCR4) (Homo sapiens, UniProt P61073) and state it.
A: ≥ 1000 nM

Q: Recall the recorded IC50 for CN1CCN(c2cccc3nc([C@H]4CCC[C@@H](c5nccn6cccc56)N4C)[nH]c23)CC1 (stereo in doubt) with CXCR-4 transfected U87 cell line (U87.CXCR4) (Homo sapiens, UniProt P61073) and state it.
A: 100 to 1000 nM

Q: Recall the recorded IC50 for Cc1cccnc1[C@@H]1CCC[C@H](c2nc3cccc(N4CCN(c5ccccn5)CC4)c3[nH]2)N1 with CXCR-4 transfected U87 cell line (U87.CXCR4) (Homo sapiens, UniProt P61073) and state it.
A: ≥ 1000 nM

Q: Recall the recorded IC50 for Cc1cccnc1[C@@H]1C[C@@H](O)C[C@H](c2nc3cccc(N4CCN(C)CC4)c3[nH]2)N1C with CXCR-4 transfected U87 cell line (U87.CXCR4) (Homo sapiens, UniProt P61073) and state it.
A: 0.01 to 100 nM

Q: Recall the recorded IC50 for CCN1CCN(c2cccc3nc([C@H]4CCC[C@@H](c5ncccc5C(F)(F)F)N4C)[nH]c23)CC1 (relative stereo) with CXCR-4 transfected U87 cell line (U87.CXCR4) (Homo sapiens, UniProt P61073) and state it.
A: ≥ 1000 nM

Q: Recall the recorded IC50 for Cc1cccnc1[C@@H]1CCC[C@H](c2nc3cccc(N4CCN(C(C)C)CC4)c3[nH]2)N1 with CXCR-4 transfected U87 cell line (U87.CXCR4) (Homo sapiens, UniProt P61073) and state it.
A: 0.01 to 100 nM
